experimental_target: human SR-BI (Homo sapiens, UniProt Q8WTV0)
Construct: expressed in transfected cells; host or cells: BHK(SR-BI) cells obtained from the NIH, GeneSwitch System (Invitrogen), induced with 10 nM mifepristone
Sequence (Q8WTV0 1-509 isoform Q8WTV0-2): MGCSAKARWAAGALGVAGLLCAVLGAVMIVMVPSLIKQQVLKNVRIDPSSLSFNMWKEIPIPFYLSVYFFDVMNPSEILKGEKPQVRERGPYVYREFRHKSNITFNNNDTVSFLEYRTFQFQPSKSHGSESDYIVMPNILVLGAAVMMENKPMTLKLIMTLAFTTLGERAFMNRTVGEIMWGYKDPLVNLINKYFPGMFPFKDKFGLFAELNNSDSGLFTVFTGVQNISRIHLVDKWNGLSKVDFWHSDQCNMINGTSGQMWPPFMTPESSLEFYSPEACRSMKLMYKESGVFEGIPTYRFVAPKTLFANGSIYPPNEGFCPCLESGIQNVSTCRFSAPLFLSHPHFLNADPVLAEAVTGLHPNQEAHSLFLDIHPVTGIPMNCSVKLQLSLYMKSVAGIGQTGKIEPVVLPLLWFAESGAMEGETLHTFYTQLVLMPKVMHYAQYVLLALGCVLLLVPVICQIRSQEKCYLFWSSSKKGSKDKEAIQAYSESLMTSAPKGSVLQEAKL
assay_details: DiI uptake from DiI-labeled PALM by BHK(SR-BI) cells, uninduced or mifepristone-induced (SR-BI selectivity)
Assay type: cell-based
settings: Increase over basal uptake
Square brackets hold non-standard residues; d marks the D form. Ends that are not written are not given here. Aib = CC(C)(N)C(=O)O
readout_name: SR-BI Dependent Uptake (%)
Give just the number in %; leave the unit off.

Examples with answers:
>>> measured("D{Aib}FQKL{Aib}ELFNQL{Aib}EKWKQV (D[Aib]FQKL[Aib]ELFNQL[Aib]EKWKQV) [SEQ ID NO: 7, amphiphilic peptide used to form PALM]")
137
>>> measured("DVFQKL{Aib}ELFNQLLEKWKQV (DVFQKL[Aib]ELFNQLLEKWKQV) [SEQ ID NO: 1, amphiphilic alpha-helical peptide used to form PALM]")
53

Pending substance:
Please provide the recorded SR-BI Dependent Uptake for DVFQKLVELFNQLLEKWKQV [SEQ ID NO: 2, amphiphilic peptide used to form PALM] , tested on human SR-BI (Homo sapiens, UniProt Q8WTV0).
35
